Data origin: PubChem BioAssay AID492956

- assay.system: Platelet-activating factor acetylhydrolase 2, cytoplasmic (Homo sapiens) (UniProt Q99487)
- protocol: inhibition of cytoplasmic PAF acetylhydrolase 2 – biochemical, fluorescence polarization, human, primary screen (AID 492956);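 note: inhibitors block probe labeling of enzyme so polarization drops; 0% = enzyme with DMSO and 100% = wells lacking PAFAH2 protein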
- cond: recombinant PAFAH2, FP-rhodamine activity probe, at 3.39 µM
The whole screen tested about 340,000 compounds, of which about 3,300 (0.97%) were called active.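 Rule for the calls: active = inhibition above the mean over all tested compounds plus 3 SD (cut at about 30% in these data); inactive = the rest.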 The sample as a whole holds a higher share of actives than the screen did. Non-standard residues stand in square brackets, D forms with d. Residues, ends and D or L forms follow the SMILES beside them. ξ: configuration not given here. *: point of attachment. Cbz = O=C(OCc1ccccc1)*; ξL = CC(C)CC(N)C(=O)O; ξP = O=C(O)C1CCCN1
Just give me one of these, please: active, inactive

# count of solved cases: 6
CC1CCc2sc(C(=O)N/N=C/C3CCCCC3)cc2C1 (stereo not given) | inactive
CC(C)CC(NC(=O)C1CCCN1C(=O)[C@@H](C)NC(=O)OCc1ccccc1)C(=O)NCC(N)=O (stereo not given in full) (Cbz-[dA][ξP][ξL]G-NH2) | inactive
Oc1ccc2ccc3cccc[n+]3c2c1 | inactive
CCC(C)C(NC(=O)C1CCC(=O)N1C(=O)OCc1ccccc1)C(=O)NC(C(=O)N1CCCC1C(N)=O)C(C)CC (stereo not given) | active
Cc1cnc(NC(=O)c2ccccn2)s1 | inactive
Cc1ccc(NC(=O)C2CCCN2C(=O)OCc2ccccc2)cc1C (stereo not given) | inactive

Now look at this one.
Prompt: Returns: the outcome recorded for COc1cc(C(=O)NCc2nnc(SCC(=O)Nc3nc4ccc(C)cc4s3)o2)cc(OC)c1OC in this assay.
Response: inactive

----------
- assay.system: Platelet-activating factor acetylhydrolase 2, cytoplasmic (Homo sapiens)
- protocol: inhibition of cytoplasmic PAF acetylhydrolase 2 – biochemical, fluorescence polarization, human, primary screen (AID 492956);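 note: inhibitors block probe labeling of enzyme so polarization drops; 0% = enzyme with DMSO and 100% = wells lacking PAFAH2 protein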
- cond: recombinant PAFAH2, FP-rhodamine activity probe, at 3.39 µM, hits give high values
Hit rate of the full screen: of about 340,000 compounds, about 3,300 (0.97%) were called active. The full list was thinned out, with actives kept by preference.
Examples of compounds with documented inhibition follow.
The response must be a number in % with no trailing unit.

Prompt: Param readout = inhibition; param system = Platelet-activating factor acetylhydrolase 2, cytoplasmic (Homo sapiens); param query = O=C(OCC(=O)N1CCCCCC1)c1ccc(Br)c(S(=O)(=O)N2CCOCC2)c1 ; response: value
Response: 8.68

Prompt: Param readout = inhibition; param system = Platelet-activating factor acetylhydrolase 2, cytoplasmic (Homo sapiens); param query = CC(C)C1C2=C(CC(C)(C)CC2=O)ON1c1ccccc1 (stereo not given) ; response: value
Response: -5.16

Prompt: Param readout = inhibition; param system = Platelet-activating factor acetylhydrolase 2, cytoplasmic (Homo sapiens); param query = O=C(CSc1n[nH]c(-c2cccnc2)n1)Nc1ccc(Cl)cc1 ; response: value
Response: -7.75

Prompt: Param readout = inhibition; param system = Platelet-activating factor acetylhydrolase 2, cytoplasmic (Homo sapiens); param query = COc1cccc(/C=N/Nc2ccc(S(=O)(=O)Nc3ccccc3C(=O)O)cc2[N+](=O)[O-])c1O ; response: value
Response: 27.3

Prompt: Param readout = inhibition; param system = Platelet-activating factor acetylhydrolase 2, cytoplasmic (Homo sapiens); param query = O=C(O)C(c1ccccc1)N1C(=O)/C(=C\c2ccc(-c3cccc(Cl)c3)o2)SC1=S (stereo not given) ; response: value
Response: 40.3

Prompt: Param readout = inhibition; param system = Platelet-activating factor acetylhydrolase 2, cytoplasmic (Homo sapiens); param query = CC1CCc2c(c3ccccc3[nH]c2=O)O1 (stereo not given) ; response: value
Response: -0.64

Prompt: Param readout = inhibition; param system = Platelet-activating factor acetylhydrolase 2, cytoplasmic (Homo sapiens); param query = CC1(C)CC(=O)c2cnc3nc4ccccc4n3c2C1 ; response: value
Response: -0.49

Prompt: Param readout = inhibition; param system = Platelet-activating factor acetylhydrolase 2, cytoplasmic (Homo sapiens); param query = COc1cccc(C2=CC(=O)C[C@H](c3ccc(F)cc3)C2)c1OC ; response: value
Response: -13.9

Prompt: Param readout = inhibition; param system = Platelet-activating factor acetylhydrolase 2, cytoplasmic (Homo sapiens); param query = NC[C@H](Cc1ccccc1)NCCc1cc(C(F)(F)F)cc(C(F)(F)F)c1 ; response: value
Response: -1.16

Prompt: Param readout = inhibition; param system = Platelet-activating factor acetylhydrolase 2, cytoplasmic (Homo sapiens); param query = O=C(OCCN1C(=O)c2ccccc2C1=O)[C@@H]1CC(O)CN1S(=O)(=O)c1ccccc1[N+](=O)[O-] (stereo not given in full) ; response: value
Response: 3.85
